molecular target: WT EML4-ALK (NIH-3T3 EML4-ALK wt v1 cells) (Homo sapiens, UniProt Q9UM73); construct: expressed in transfected cells; the other entry of the earlier key: EML4 (Q9HC35, Echinoderm microtubule-associated protein-like 4); assay: Cellular phospho-ALK (Tyr1604) ELISA assay for WT EML4-ALK; type: cell-based; settings: 1 hour, read-out: ELISA assay for WT EML4-ALK (IC50)
Sequence (Q9UM73 with tags, fused parts or gaps): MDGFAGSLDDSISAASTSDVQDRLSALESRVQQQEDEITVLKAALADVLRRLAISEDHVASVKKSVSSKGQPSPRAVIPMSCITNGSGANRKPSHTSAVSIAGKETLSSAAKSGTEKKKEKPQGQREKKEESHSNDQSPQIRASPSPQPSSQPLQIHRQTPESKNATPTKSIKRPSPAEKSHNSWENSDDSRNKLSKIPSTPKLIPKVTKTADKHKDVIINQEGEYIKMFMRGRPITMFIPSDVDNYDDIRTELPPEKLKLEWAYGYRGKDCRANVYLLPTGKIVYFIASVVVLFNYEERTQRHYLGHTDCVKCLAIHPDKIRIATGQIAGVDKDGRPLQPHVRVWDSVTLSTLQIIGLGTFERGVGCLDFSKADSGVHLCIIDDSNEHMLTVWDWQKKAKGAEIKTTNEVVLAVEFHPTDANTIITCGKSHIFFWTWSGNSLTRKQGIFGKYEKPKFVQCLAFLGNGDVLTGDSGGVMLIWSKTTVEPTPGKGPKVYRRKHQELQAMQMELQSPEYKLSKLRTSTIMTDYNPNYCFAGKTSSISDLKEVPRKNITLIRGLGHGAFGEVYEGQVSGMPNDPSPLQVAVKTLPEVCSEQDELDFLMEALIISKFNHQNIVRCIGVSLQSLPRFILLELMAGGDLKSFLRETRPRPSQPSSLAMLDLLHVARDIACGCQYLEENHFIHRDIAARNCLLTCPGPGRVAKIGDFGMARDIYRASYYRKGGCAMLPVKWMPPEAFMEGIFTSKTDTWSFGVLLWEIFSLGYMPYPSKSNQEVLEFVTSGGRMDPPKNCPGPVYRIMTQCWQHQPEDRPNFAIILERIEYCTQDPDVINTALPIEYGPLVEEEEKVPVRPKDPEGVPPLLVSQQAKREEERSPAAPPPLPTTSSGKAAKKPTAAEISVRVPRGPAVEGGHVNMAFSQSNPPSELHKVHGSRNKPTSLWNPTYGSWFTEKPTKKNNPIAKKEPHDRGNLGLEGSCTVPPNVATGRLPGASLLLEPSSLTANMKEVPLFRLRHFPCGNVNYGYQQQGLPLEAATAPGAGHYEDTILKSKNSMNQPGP
pIC50: −log10 of the molar value.
metricName: pIC50

{"compound": "C[C@H]1Oc2nc(cnc2N)-c2c(nn(CC(F)F)c2C#N)CN(C)C(=O)c2ccc(F)cc21 [Example 91]", "metricName": "pIC50", "endpointResult": 9.17}
{"compound": "C[C@H]1Oc2cc(cnc2N)-c2c(C#N)noc2CN(C)C(=O)c2ccc(F)cc21 [Example 117]", "metricName": "pIC50", "endpointResult": 7.45}
{"compound": "C[C@H]1Oc2nc(cnc2N)-c2c(nn(C3COC3)c2C#N)CN(C)C(=O)c2ccc(F)cc21 [Example 93]", "metricName": "pIC50", "endpointResult": 8.49}
{"compound": "CC1Cc2cc(cnc2N)-c2c(nn(C)c2C(N)=O)CN(C)C(=O)c2ccc(F)cc21 (stereo not drawn) [Example 62]", "metricName": "pIC50", "endpointResult": 5.12}
{"compound": "COc1nn(C)c2c1-c1cnc(N)c(c1)OC(C1CC1)c1cc(F)ccc1C(=O)N(C)C2 (single isomer, unassigned) [Example 25]", "metricName": "pIC50", "endpointResult": 8.87}
{"compound": "C[C@H]1Oc2cc(cnc2N)-c2c(noc2C#N)CN(C)C(=O)c2ccc(F)cc21 [Example 100]", "metricName": "pIC50", "endpointResult": 6.83}
{"compound": "CC1Oc2nc(cnc2N)-c2c(C#N)nn3c2C(CC3)N(C)C(=O)c2ccc(F)cc21 (stereo not drawn) [Example 75]", "metricName": "pIC50", "endpointResult": 9.04}
{"compound": "CC(C)n1nc2c(c1C#N)-c1cnc(N)c(n1)O[C@H](C)c1cc(F)ccc1C(=O)N(C)C2 [Example 92]", "metricName": "pIC50", "endpointResult": 9.33}
{"compound": "C[C@H]1Oc2nc(cnc2N)-c2c(C#N)noc2CN(C)C(=O)c2ccc(F)cc21 [Example 73]", "metricName": "pIC50", "endpointResult": 7.89}
{"compound": "C[C@H]1Oc2cc(cnc2N)-c2c(n[nH]c2C#N)CN(C)C(=O)c2ccc(F)cc21 [Example 88]", "metricName": "pIC50", "endpointResult": 7.81}
{"compound": "CCc1onc2c1-c1cnc(N)c(c1)O[C@H](C)c1cc(F)ccc1C(=O)N(C)C2 [Example 82]", "metricName": "pIC50", "endpointResult": 7.95}
{"compound": "CC1Oc2nc(cnc2N)-c2c(nn(C)c2C#N)Cn2ccnc2-c2ccc(F)cc21 (single isomer, unassigned) [Example 109]", "metricName": "pIC50", "endpointResult": 7.96}
{"compound": "C[C@H]1Oc2nc(cnc2N)-c2c(nn(C)c2C#N)CN(C2CC2)C(=O)c2ccc(F)cc21 [Example 54]", "metricName": "pIC50", "endpointResult": 9.48}
{"compound": "CC1Oc2cc(F)ccc2C(=O)N(C)Cc2nn(C)c(C#N)c2-c2cnc(N)c1c2 (single isomer, unassigned) [Example 76]", "metricName": "pIC50", "endpointResult": 7.02}
{"compound": "CC1Oc2nc(cnc2N)-c2c(nn(C)c2C#N)CN(C)C(=O)c2ccc(F)cc21 (single isomer, unassigned) [Example 32]", "metricName": "pIC50", "endpointResult": 9.08}

From: patent US8680111B2
